Recorded values, source paper PMC6547622.

Record type: Ki measurement. Applies to: UniProt P71447

molecule | Ki / µM
O=P(O)(O)OC[C@H]1O[C@@](O)(CF)[C@H](O)[C@@H](O)[C@@H]1O | 92
C[C@]1(O)O[C@H](COP(=O)(O)O)[C@@H](O)[C@H](O)[C@H]1O [compound 1, 1-Deoxy-α-D-gluco-heptulose 7-Phosphate] | 57
O=P(O)(O)OC[C@H]1O[C@@](O)(C(F)F)[C@H](O)[C@@H](O)[C@@H]1O | 107
